Data provenance: PubChem BioAssay AID1159580

Experiment: chemical genetic growth profiling, strain panel (AID 1159580);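 further: tested at 20 µM; growth read once vehicle control cultures reached saturation at 30 °C; 1 = growth at the plate median or of vehicle wells; lower values mean less growth of the strain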
Conditions: S. cerevisiae deletion strains, growth OD, locus YDL035C, strain GPR1, hits give low values
The campaign covered roughly 5,500 compounds. About 2,000 (36%) were called active. Roughly 18% stayed inconclusive and do not appear here. The list shows a part of the results.
Readout Kind: normalized growth
Form field (numeric): enter value without unit.

**Q:** Report normalized growth for CC(=O)N(O)CCCCCNC(=O)CCC(=O)N(O)CCCCCNC(=O)CCC(=O)N(O)CCCCCN please.
**A:** 0.987

**Q:** Report normalized growth for C[N+]1(CCCCC[N+]2(C)CCCC2)CCCC1 please.
**A:** 1.01

**Q:** Report normalized growth for CCCCCCCCCCCCCCCC[n+]1ccccc1 please.
**A:** 0.0498

**Q:** Report normalized growth for CCC/C=C/C=C/[C@@H]1C[C@@H](O)[C@@H](O)C(=O)[C@H]1C=O please.
**A:** 1

**Q:** Report normalized growth for O=c1c2ccccc2[se]n1-c1ccccc1 please.
**A:** 0.0537

**Q:** Report normalized growth for CCN(CC)CCNc1ccc(CO)c2sc3ccccc3c(=O)c12 please.
**A:** 0.992

**Q:** Report normalized growth for C#CCOS(=O)OC1CCCCC1Oc1ccc(C(C)(C)C)cc1 (configuration not stated) please.
**A:** 1
